- System: 786-0 renal
- protocol_description: NCI tumour cell line growth inhibition, 48 h; in the data active = GI50 below about 0.43 µM; inactive = the rest
Outcomes: active, inactive

INSERT INTO results (molecule, target_of_assay, label_value) VALUES
  ('O=C1NC(=O)C(c2ccccc2Cl)=C1Nc1cc(Cl)c(O)c(Cl)c1', '786-0 renal', 'inactive'),
  ('Cc1ccc2c(-c3ccnc(Nc4ccccc4)n3)c(-c3ccc(F)cc3)nn2n1', '786-0 renal', 'inactive'),
  ('CC(=Nc1ccccc1)C1=C(O)C(Cc2ccc(O)cc2)NC1=O (stereo not given)', '786-0 renal', 'inactive'),
  ('NC1CCC(Nc2nc(NCc3ccc(-c4ccccc4O)nc3)c3ncn(C4CCCC4)c3n2)CC1 (stereo not given)', '786-0 renal', 'active'),
  ('COc1ccc(-c2cc(-c3ccc(Cl)cc3)nc(SCCCC(=O)NO)n2)cc1', '786-0 renal', 'inactive'),
  ('COC(=O)c1cc2c3ccccc3n3c(=O)c4cc5ccccc5nc4c(n1)c23', '786-0 renal', 'inactive'),
  ('O=C(O)c1ccc(Oc2nccc(-c3c(-c4ccc(F)cc4)ncn3C3CCNCC3)n2)cc1', '786-0 renal', 'inactive'),
  ('CC(=O)[CH-]C(=O)c1ccccc1.CC(=O)[CH-]C(=O)c1ccccc1.CC(C)CCCC(C)[C@H]1CCC2[C@@H]3CC=C4C[C@@H]([O-])CC[C@]4(C)C3CC[C@@]21C.CC(C)CCCC(C)[C@H]1CCC2[C@@H]3CC=C4C[C@@H]([O-])CC[C@]4(C)C3CC[C@@]21C.[Ti+4] (stereo not given in full)', '786-0 renal', 'inactive'),
  ('Cc1ccc(NC2=C(Cl)C(=O)N(Cc3ccc(Cl)cc3)C2=O)cc1O', '786-0 renal', 'inactive'),
  ('CCN(Cc1ccccc1)c1ccc(CO)c(Cl)c1', '786-0 renal', 'inactive'),
  ('C=C1C(=O)O[C@H]2[C@H]1CC/C(COC(=O)c1cc3ccccc3o1)=C\CC[C@@]1(C)O[C@@H]21', '786-0 renal', 'inactive'),
  ('Cc1ccc(Cc2cnc(NC(=O)/C=C/c3cccc(C)c3)s2)cc1', '786-0 renal', 'active'),
  ('CC(C)[O-].CC(C)[O-].O=C1C=C([O-])C(=O)c2ccccc21.O=C1C=C([O-])C(=O)c2ccccc21.[Ti+4]', '786-0 renal', 'inactive'),
  ('O=C1CC(=O)N(C(=O)c2nn(-c3ccc(Cl)cc3)cc2O)N1', '786-0 renal', 'inactive'),
  ('C=C(NC(=O)C(=C)NC(=O)c1csc(C2=NC3c4csc(n4)C4NC(=O)c5csc(n5)C(C(C)(O)C(C)O)NC(=O)C5CSC(=N5)C(=CC)NC(=O)C(C(C)O)NC(=O)c5csc(n5)C3(CC2)NC(=O)C(C)NC(=O)C(=C)NC(=O)C(C)NC(=O)C(C(C)CC)NC2C=Cc3c(C(C)O)cc(nc3C2O)C(=O)OC4C)n1)C(N)=O (stereo not given)', '786-0 renal', 'inactive');

* * *

Catalogue of TGI readings, one per entry.
- System: KM12 colon
- protocol_description: NCI tumour cell line growth inhibition, 48 h
observable: TGI (µM)

INSERT INTO measurements (structure_as_smiles, readout_relation, recorded_measurement) VALUES
  ('COc1cc(-c2ccc(-c3ccc(C(=N)N)nc3)s2)cc(OC)c1OC', '=', 10.5),
  ('CCOC(=O)N1c2c(ccn2C)-c2ccn(C)c2N1C(=O)OCC', '=', 57.3),
  ('CCN(CC)c1ccc2cc(C(N)=S)c(=N)oc2c1', '>', 100),
  ('CCC(=O)Nc1ccccc1C#C/C=C\C#Cc1ccccc1SC', '>', 100),
  ('Nc1ccc2c(=O)cc(-c3cccs3)[nH]c2n1', '>', 100),
  ('COc1ccc(NC([Se])=NC23CC4CC(CC(C4)C2)C3)cc1', '=', 5.54);

* * *

Measured TGI accompanies every entry in the list below.
- Tested on: SNB-19 CNS
- protocol_description: NCI tumour cell line growth inhibition, 48 h
*1 amine or outer side, *2 acyl side, *3 side chain or, on linkers, in order; H or OH if unused. Where a SMILES comes first, the peptide text is derived from it. Bridges are numbered along the chain shown (N, C = ends). Roman numbers before positions name the chains, in order. [ ]: non-standard residue; d: D form. The star is where a group is joined. Actinocin(9to1) = Cc1c2oc3c(C)ccc(C(=O)[*:1])c3nc-2c(C(=O)[*:2])c(N)c1=O; NMeT = CN[CH](C(=O)O)[CH](C)O; Iva = CC[C](C)(N)C(=O)O; Boc = CC(C)(C)OC(=O)*; X52 = C1CCC(=NO*)C1; Sar = CNCC(=O)O
observable: TGI

INSERT INTO results (compound, observable, recorded_measurement) VALUES
  ('COc1cc2nc(-c3cccs3)nc(N3CCN(c4ccccc4C(F)(F)F)CC3)c2cc1OC', 'TGI', '> 100 µM'),
  ('O=S(CC1(O)CCCCC1)c1ccccc1 (configuration not stated)', 'TGI', '> 100 µM'),
  ('Cc1cccc(C)c1CO', 'TGI', '> 100 µM'),
  ('O=C1CC(=O)N(C(=O)c2nn(-c3ccc(Cl)cc3)cc2O)N1', 'TGI', '> 100 µM'),
  ('CC(=O)OC[C@]1(C)CCCC2(C)C1CCC1C=C(C)[C@H]3CCC12C3 (some centres not stated)', 'TGI', '> 100 µM'),
  ('c1cc(N2CCCN(c3ccc(C4=NCCCN4)cc3)CC2)ccc1C1=NCCCN1', 'TGI', '> 100 µM'),
  ('COc1ccc(S(=O)(=O)NC(CCC(=O)NN)C(=O)NN)cc1 (configuration not stated)', 'TGI', '> 100 µM'),
  ('COc1ccc(/C(COc2ccc3c(=O)c(-c4ccccc4)coc3c2)=N\O)cc1', 'TGI', '> 86.7 µM'),
  ('CCC(=O)Nc1ccccc1C#C/C=C\C#Cc1ccccc1SC', 'TGI', '> 100 µM'),
  ('CCO/C=N\c1c(C#N)c(-c2ccc(Cl)cc2)cn1-c1ccc(C)cc1', 'TGI', '> 100 µM'),
  ('NC(=O)c1cc2ccc(O)cc2o/c1=N/NC(=O)c1ccccc1', 'TGI', '> 100 µM'),
  ('CC1C/C(=C\c2ccc(OC(=O)C(C)(C)C)cc2)C(=O)/C(=C/c2ccc(OC(=O)C(C)(C)C)cc2)C1 (configuration not stated)', 'TGI', '> 100 µM'),
  ('CCC(C)(NC(=O)C(C)NC(=O)OC(C)(C)C)C(=O)NC(C)C(=O)NC(C)(CC)C(=O)ON=C1CCCC1 (configuration not stated) (Boc-A[Iva]A[Iva]-X52; configuration not given here)', 'TGI', '> 100 µM'),
  ('CCN(Cc1ccccc1)c1ccc(CO)c(Cl)c1', 'TGI', '> 100 µM'),
  ('Cn1nc(-c2ccccc2)c(C(=O)/C=C/c2ccc(Cl)cc2)c(N2CCCCC2)c1=O', 'TGI', '4.72 µM'),
  ('NC1CCC(Nc2nc(NCc3ccc(-c4ccccc4O)nc3)c3ncn(C4CCCC4)c3n2)CC1 (configuration not stated)', 'TGI', '1.32 µM'),
  ('C=C1C(=O)O[C@@H]2[C@@H]3O[C@@H](C[C@@H]13)[C@](C)(O)CC/C=C(\C)CCC[C@@H]2C', 'TGI', '29.8 µM'),
  ('C/C(=N\Nc1cc(C)c2ccccc2n1)c1ccccn1', 'TGI', '13.6 µM'),
  ('COc1ccc2c3c([nH]c2c1[N+](=O)[O-])C(C)N(Cc1ccc([N+](=O)[O-])cc1)CC3 (configuration not stated)', 'TGI', '> 100 µM'),
  ('CCOC(=O)CCC(NC(=O)c1ccc(Oc2nc3ccccc3nc2-c2ccccc2)cc1)C(=O)OCC (configuration not stated)', 'TGI', '> 77 µM'),
  ('O=C(Nc1ccc(Cl)cc1Cl)C1C(=O)C(=O)N(c2ccc(Cl)cc2Cl)C1=O (configuration not stated)', 'TGI', '> 100 µM'),
  ('COc1ccc(C2SCC(=O)N2NC(=O)c2ccncc2)cc1F (configuration not stated)', 'TGI', '> 100 µM'),
  ('Cc1cc(C)nc(NS(=O)(=O)c2ccc(NNc3c4ccccc4nc4c(C(=O)Nc5ccc(S(N)(=O)=O)cc5)cccc34)cc2)n1', 'TGI', '> 100 µM'),
  ('COc1ccc(NC(=O)CC/C(CC(=O)C(C)(C)C)=N\NC(=O)C(=O)NN)cc1', 'TGI', '> 100 µM'),
  ('N#Cc1c(=O)c2ccccc2n2c1[nH]c1ccccc12', 'TGI', '> 100 µM'),
  ('COc1cccc2c1CCc1cc3c(N)nc(N)nc3nc1-2', 'TGI', '26.7 µM'),
  ('NC(N)=NS(=O)(=O)c1ccc(NNc2c3ccccc3nc3c(C(=O)Nc4ccc(S(=O)(=O)N=C(N)N)cc4)cccc23)cc1', 'TGI', '> 100 µM'),
  ('O=C(c1ccccc1)c1c(-c2ccccc2)sc2nc3ccccc3nc12', 'TGI', '> 100 µM'),
  ('COC(=O)[C@]12CC[C@H]3CC[C@H]([C@H]31)[C@H](c1ccccc1)N2', 'TGI', '47.3 µM'),
  ('O=P1(Oc2ccc(Cl)cc2Cl)Oc2ccc3ccccc3c2-c2c(ccc3ccccc23)O1', 'TGI', '82.8 µM'),
  ('CCN(CC)c1ccc2cc(C(N)=S)c(=N)oc2c1', 'TGI', '> 100 µM'),
  ('CC1CN=C(Nc2ccccc2)S1 (configuration not stated)', 'TGI', '> 100 µM'),
  ('C[C@]12CCC(=O)C(O)=C1CC[C@@H]1C2CC[C@]2(C)NC(=O)CCC12 (some centres not stated)', 'TGI', '> 100 µM'),
  ('Nc1nc2c(c(=O)[nH]1)C(c1ccccc1)CC(=O)N2 (configuration not stated)', 'TGI', '> 100 µM'),
  ('N#Cc1ccc2c(c1)C(=O)c1c-2n(CCCCl)c(=O)c2cc([N+](=O)[O-])ccc12', 'TGI', '> 100 µM'),
  ('Cc1c2oc3c(C)ccc(C(=O)NC4C(=O)NC(C(C)C)C(=O)N5CCCC5C(=O)N(C)CC(=O)N(C)C(C(C)O)C(=O)OC4C)c3nc-2c(C(=O)NC2C(=O)NC(C(C)C)C(=O)N3CCCC3C(=O)N(C)CC(=O)N(C)C(C(C)O)C(=O)OC2C)c(N)c1=O (configuration not stated) (I: TVP[Sar][NMeT] / II: TVP[Sar][NMeT]; ester I:1-I:C, II:1-II:C; linker I:N-II:N via Actinocin(9to1); configuration not given here)', 'TGI', '> 100 µM'),
  ('CNC(=S)NC(=O)c1c(Cl)n(C(=O)OC(C)(C)C)c2ccccc12', 'TGI', '> 100 µM');
